Attribution: PubChem BioAssay AID2073

target: Voltage-dependent N-type calcium channel subunit alpha-1B (Homo sapiens) (UniProt Q00975); assay: disruptors of CaV2.2 binding to Mint1 – biochemical, HTRF (AID 2073); conditions: HTRF protein-protein interaction, Mint1-CaV2.2; at 20 µM; active compounds read high
Sequence (Q00975 whole entry, looked up): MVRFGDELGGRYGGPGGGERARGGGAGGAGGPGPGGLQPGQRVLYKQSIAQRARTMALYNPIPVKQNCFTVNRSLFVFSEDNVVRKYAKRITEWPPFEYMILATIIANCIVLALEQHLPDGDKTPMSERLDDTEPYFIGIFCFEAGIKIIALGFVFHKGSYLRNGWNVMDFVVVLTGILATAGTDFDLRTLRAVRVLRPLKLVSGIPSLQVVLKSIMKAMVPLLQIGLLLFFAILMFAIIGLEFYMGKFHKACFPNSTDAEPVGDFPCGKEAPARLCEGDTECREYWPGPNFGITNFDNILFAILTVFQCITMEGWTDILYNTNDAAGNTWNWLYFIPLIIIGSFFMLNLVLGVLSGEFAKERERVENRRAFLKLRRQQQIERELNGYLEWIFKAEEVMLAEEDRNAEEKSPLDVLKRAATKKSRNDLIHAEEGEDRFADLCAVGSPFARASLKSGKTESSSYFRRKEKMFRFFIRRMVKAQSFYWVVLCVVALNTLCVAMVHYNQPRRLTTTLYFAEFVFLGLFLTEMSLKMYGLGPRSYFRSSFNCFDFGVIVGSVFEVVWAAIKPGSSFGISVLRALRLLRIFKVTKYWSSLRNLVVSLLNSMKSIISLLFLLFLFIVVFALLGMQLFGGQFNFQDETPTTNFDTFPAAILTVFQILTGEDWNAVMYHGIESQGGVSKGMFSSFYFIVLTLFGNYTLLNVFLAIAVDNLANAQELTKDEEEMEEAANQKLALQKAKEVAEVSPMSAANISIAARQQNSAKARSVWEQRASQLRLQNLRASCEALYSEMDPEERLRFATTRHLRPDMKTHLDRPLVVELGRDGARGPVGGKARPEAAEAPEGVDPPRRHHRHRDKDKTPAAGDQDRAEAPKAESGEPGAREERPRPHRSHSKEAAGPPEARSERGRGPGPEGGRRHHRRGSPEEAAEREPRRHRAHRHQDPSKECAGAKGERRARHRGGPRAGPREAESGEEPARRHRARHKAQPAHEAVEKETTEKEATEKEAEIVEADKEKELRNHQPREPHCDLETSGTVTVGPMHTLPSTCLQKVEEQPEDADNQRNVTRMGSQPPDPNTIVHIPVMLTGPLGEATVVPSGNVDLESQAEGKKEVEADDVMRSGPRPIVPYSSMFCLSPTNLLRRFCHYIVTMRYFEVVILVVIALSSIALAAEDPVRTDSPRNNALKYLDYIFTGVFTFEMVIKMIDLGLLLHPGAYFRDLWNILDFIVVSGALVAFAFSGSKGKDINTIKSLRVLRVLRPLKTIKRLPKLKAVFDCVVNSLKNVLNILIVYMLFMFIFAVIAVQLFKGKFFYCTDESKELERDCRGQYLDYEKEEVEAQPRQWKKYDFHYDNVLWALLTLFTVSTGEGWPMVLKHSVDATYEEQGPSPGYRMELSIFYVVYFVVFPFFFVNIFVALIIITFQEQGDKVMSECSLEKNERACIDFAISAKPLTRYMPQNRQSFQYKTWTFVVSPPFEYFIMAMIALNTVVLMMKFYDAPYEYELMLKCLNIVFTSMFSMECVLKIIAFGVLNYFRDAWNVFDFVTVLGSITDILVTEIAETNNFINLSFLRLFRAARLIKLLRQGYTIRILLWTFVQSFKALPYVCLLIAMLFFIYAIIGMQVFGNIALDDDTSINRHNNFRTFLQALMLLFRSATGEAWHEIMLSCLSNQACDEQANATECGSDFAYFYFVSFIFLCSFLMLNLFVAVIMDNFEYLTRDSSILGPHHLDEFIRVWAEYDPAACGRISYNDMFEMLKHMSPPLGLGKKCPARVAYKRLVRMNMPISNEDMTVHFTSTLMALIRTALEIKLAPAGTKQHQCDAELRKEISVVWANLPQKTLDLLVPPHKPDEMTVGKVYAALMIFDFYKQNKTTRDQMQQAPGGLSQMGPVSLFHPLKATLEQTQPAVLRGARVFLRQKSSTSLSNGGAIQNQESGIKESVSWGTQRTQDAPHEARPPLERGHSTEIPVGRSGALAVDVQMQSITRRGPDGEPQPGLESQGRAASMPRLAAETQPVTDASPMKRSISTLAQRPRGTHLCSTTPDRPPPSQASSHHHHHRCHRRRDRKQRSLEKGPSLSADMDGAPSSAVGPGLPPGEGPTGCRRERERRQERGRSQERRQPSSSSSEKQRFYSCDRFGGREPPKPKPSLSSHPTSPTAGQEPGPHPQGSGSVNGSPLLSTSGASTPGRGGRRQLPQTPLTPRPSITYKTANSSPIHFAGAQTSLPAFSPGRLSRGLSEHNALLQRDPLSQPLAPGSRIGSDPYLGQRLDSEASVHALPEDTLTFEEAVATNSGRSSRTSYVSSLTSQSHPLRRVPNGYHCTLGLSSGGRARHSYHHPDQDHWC
The whole screen tested about 290,000 compounds, of which about 570 (0.2%) were called active. Not shown: some 1% with an inconclusive outcome. For the sample, actives were picked, then their nearest neighbours and some compounds at random.
Exercise: state measured inhibition for each of the compounds provided.
Give bare numbers, in %.

compound	unitAbbrev	assayResult
CCC(=O)Nc1ccc(C(=O)CSc2nc3ccc(C)cc3[nH]2)cc1	%	32.1
O=C(/C=C/c1ccco1)NCC1COc2ccccc2O1 (stereo not given)	%	11
Nc1cc(Cl)ccc1C(=O)OCC(=O)N1CCOCC1	%	7.5
COc1ccc(N2C(=O)NC(=O)C2=O)cc1	%	-3.9

Moving on to another compound below.
Q: Query for Voltage-dependent N-type calcium channel subunit alpha-1B (Homo sapiens) (UniProt Q00975): what inhibition does the record show for O=S(=O)(NCC1CCCO1)c1ccc(Oc2ccccc2)cc1 (stereo not given) ?
Ans: 8.9
